assayNotes: Thermodynamic (equilibrium) solubility at 37° C., immersed UV probes
Type: physicochemical
appliedConditions: aqueous buffer, thermodynamic from solid, pH 6.5 (phosphate buffer)
quantity: solubility thermodynamic
Put your answer as a value accompanied by its unit after it.

Query: Consider the molecule COc1ccc(-c2nc3ccc(C4=NNC(=O)CC4C)cc3[nH]2)cc1 (stereo not shown) [Crystalline pimobendan] and give its measured solubility thermodynamic.
Reply: 0.3 µg/mL
